TARGET_OF_ASSAY: T1, His6-tagged human KRas Isoform 4B (residues 1-169) (human, UniProt P01116-2 1-169)
T1 construct: Expressed in E. coli BL21(DE3), purified on Ni-NTA; also called KRas protein; WT KRas protein; not shown: His6 tag from the PQE80 vector
ASSAY_NAME: barcoded rapid assay microchip, fitted curves of FIG. 6B (Hill coefficient 1), triplicate
Ends that are not written are not given here.
Here the recorded EC50 is given for each entry.
Reply numerically in µM, unit not repeated.

The cases that follow already have their EC50 on record.
>  <BINDER>
VQVPY (triazole (positions not given here); not fully specified (bridges); also: 1,4-triazole macrocycle, ring places not given here, propargylglycine click handle, place not given here, biotinylated (biotin NovaTag resin), site not given here, also called VQVPY f1) [L7a]

>  <REPORTED_METRIC>
EC50

>  <EXPERIMENTAL_VALUE>
31.5

$$$$
>  <BINDER>
VEVPY (triazole (positions not given here); not fully specified (bridges); also: 1,4-triazole macrocycle, ring places not given here, propargylglycine click handle, place not given here, biotinylated (biotin NovaTag resin), site not given here, also called VEVPY f2) [L4b]

>  <REPORTED_METRIC>
EC50

>  <EXPERIMENTAL_VALUE>
32.7

$$$$
>  <BINDER>
VQVPY (triazole (positions not given here); not fully specified (bridges); also: 1,4-triazole macrocycle, ring places not given here, propargylglycine click handle, place not given here, biotinylated (biotin NovaTag resin), site not given here, also called VQVPY f2) [L7b]

>  <REPORTED_METRIC>
EC50

>  <EXPERIMENTAL_VALUE>
30.3

$$$$
>  <BINDER>
EGVPV (triazole (positions not given here); not fully specified (bridges); also: macrocycle closed by 1,4-triazole, propargylglycine click handle, other ring residues not given here, also called EGVPV) [L2]

>  <REPORTED_METRIC>
EC50

>  <EXPERIMENTAL_VALUE>
8.19

$$$$

Next, consider the following binder.
The value of EC50 measured for the binder HGIVG (triazole (positions not given here); not fully specified (bridges); also: 1,4-triazole macrocycle, ring places not given here, propargylglycine click handle, place not given here, biotinylated (biotin NovaTag resin), site not given here, It is one of two HPLC fractions of the same mass; also called HGIVG f1) [L1a] turned out to be 16.2
